# System: HNSC
# METHOD_SUMMARY: growth inhibition (% activity, log2 RLU normalised to DMSO / staurosporine); higher = more growth inhibition
# CONDITION_LABEL: 33 µM
Measured growth inhibition values are reported for all entries that follow.
Respond numerically; units are % and should not be typed.

COMPOUND	MEASURED_ENDPOINT	UNIT_SPEC	READOUT_NUMBER
CC(=O)OCC(=O)[C@@]1(O)CC[C@H]2[C@@H]3CCC4=CC(=O)C=C[C@]4(C)[C@H]3[C@@H](O)C[C@@]21C	growth inhibition	%	1.11

Lab note: next compound to report on.
Query :: Item O=C1c2cccc3c2[C@H](CCC3)CN1[C@@H]1CN2CCC1CC2 has what recorded growth inhibition?
Result :: -3.52
